Attribution: patent US20240376073A1

Provide the recorded IC90 for the entries that follow.
Tested on: Acinetobacter baumannii ATCC17961
Experiment: Antimicrobial susceptibility testing: 90% growth inhibitory concentration (IC90) determination
Format: cell-based
Conditions: Acinetobacter baumannii, ATCC17961, 16 h, read-out: ATCC 17961 IC90, Acinetobacter baumannii ATCC17961; Iso-Sensitest broth; growth by OD 600 nm over 16 h; 35±2° C.
Where a name gives a salt, the structure may show the parent alone.
Lab book: enter the figure in nM, no units written.

IC90 recorded for this compound, COc1ccc(-c2cnc(C(=O)Nc3ccc(C(=O)N4CCN(C(=O)N5CC[N+](CCCN)(CC(=O)O)CC5)CC4)c(Cl)c3)n2C)c(F)c1F [Example C38, formate] , is 730

IC90 recorded for this compound, COc1ccc(-c2cnc(C(=O)Nc3ccc(C(=O)N4CCN(C(=O)[C@@H]5C[C@@H](O)C[N+]5(C)C)CC4)c(Cl)c3)n2C)c(F)c1C#N [Example B51, formate] , is 540

IC90 recorded for this compound, `Cn1c(-c2ccc(OC(F)F)c(F)c2Cl)cnc1C(=O)Nc1ccc(C(=O)N2CCN(C(=O)C3CC[N+](CC(N)=O)(CC(N)=O)CC3)CC2)c(Cl)c1` , is 120

IC90 recorded for this compound, COc1ccc(-c2cnc(C(=O)Nc3ccc(C(=O)N4CCN(C(=O)[C@@H]5C[C@@H](O)C[N+]5(C)C)CC4)c(Cl)c3)n2C)c(F)c1Cl [Example B48, formate] , is 76

IC90 recorded for this compound, COc1ccc(-c2cnc(C(=O)Nc3ccc(C(=O)NCc4cn(CCS(C)(=O)=O)[n+](C)c4)c(Cl)c3)n2C)c(F)c1F [Example A24, formate] , is 350

IC90 recorded for this compound, COc1ccc(-c2cnc(C(=O)Nc3ccc(C(=O)N4CCN(C(=O)[C@@H]5C[C@H](O)C[N+]5(C)C)CC4)c(Cl)c3)n2C)c(F)c1F [Example B34, formate] , is 140

* * *

Provide the recorded IC90 for the entries that follow.
Tested on: Acinetobacter baumannii ATCC17961
Experiment: Antimicrobial susceptibility testing: 90% growth inhibitory concentration (IC90) determination
Assay type: cell-based
Settings: Acinetobacter baumannii, ATCC17961, 16 h, read-out: ATCC 17961 IC90, Acinetobacter baumannii ATCC17961; Iso-Sensitest broth; growth by OD 600 nm over 16 h; 35±2° C.
Where a name gives a salt, the structure may show the parent alone.
Lab book: enter the figure in nM, no units written.

Considering COc1ccc(-c2cnc(C(=O)Nc3ccc(C(=O)N4CCN(C(=O)[C@@H]5C[C@@H](CO)C[N+]5(C)C)CC4)c(Cl)c3)n2C)c(F)c1F [Example B42, formate] , its IC90 with Acinetobacter baumannii ATCC17961 was recorded as 140

Considering COc1ccc(-c2cnc(C(=O)Nc3ccc(C(=O)N4CCN(C(=O)[C@@H]5[C@H](O)CC[N+]5(C)C)CC4)c(Cl)c3)n2C)c(F)c1F [Example B44, formate] , its IC90 with Acinetobacter baumannii ATCC17961 was recorded as 420

Considering Cn1c(-c2ccc(OC(F)F)c(F)c2F)cnc1C(=O)Nc1ccc(C(=O)N2CCN(C(=O)[C@@H]3C[C@@H](O)C[N+]3(C)C)CC2)c(Cl)c1 [Example B41, formate] , its IC90 with Acinetobacter baumannii ATCC17961 was recorded as 76

Considering COc1ccc(-c2cnc(C(=O)Nc3ccc(C(=O)N4CCN(C(=O)[C@@H]5C=CC[N+]5(C)C)CC4)c(Cl)c3)n2C)c(F)c1F [Example B49, formate] , its IC90 with Acinetobacter baumannii ATCC17961 was recorded as 120

Considering COc1ccc(-c2cnc(C(=O)Nc3ccc(C(=O)N4CCN(C(=O)[C@@H]5CC[C@H](O)C[N+]5(C)C)CC4)c(Cl)c3)n2C)c(F)c1F [Example B46, formate] , its IC90 with Acinetobacter baumannii ATCC17961 was recorded as 120

Considering COc1ccc(-c2cnc(C(=O)Nc3ccc(C(=O)N4CCN(C(=O)C5CC[N+](CC(=O)O)(CC6CNC6)CC5)CC4)c(Cl)c3)n2C)c(Cl)c1F (stereo not shown) [Example C40, formate] , its IC90 with Acinetobacter baumannii ATCC17961 was recorded as 540

Considering COc1ccc(-c2cnc(C(=O)Nc3ccc(C(=O)N4CCN(C(=O)N5CC[N+](C)(CC(=O)O)CC5)CC4)c(Cl)c3)n2C)c(F)c1F [Example C36, formate] , its IC90 with Acinetobacter baumannii ATCC17961 was recorded as 1100

* * *

Test system: Acinetobacter baumannii ATCC17961
Assay: Antimicrobial susceptibility testing: 90% growth inhibitory concentration (IC90) determination
Type: cell-based
Settings: Acinetobacter baumannii ATCC17961; Iso-Sensitest broth; growth by OD 600 nm over 16 h; 35±2° C.; read-out: ATCC 17961 IC90
Structures can show the parent of a compound that is named as a salt.
Provide the recorded IC90 for the entries that follow.
Lab book: enter the figure in nM, no units written.

Considering `COc1ccc(-c2cnc(C(=O)Nc3ccc(C(=O)NCCCCC[N+](C)(C)C)c(Cl)c3)n2C)c(F)c1F` , its IC90 with Acinetobacter baumannii ATCC17961 was recorded as 340

Considering `Cc1cc(NC(=O)c2ncc(-c3ccc(OCC#N)c(F)c3F)n2C)ccc1C(=O)N[C@H]1C[C@@H](NC(=O)C[N+](C)(C)C)C1` , its IC90 with Acinetobacter baumannii ATCC17961 was recorded as 240

Considering Cn1c(-c2ccc(OC(F)F)c(F)c2F)cnc1C(=O)Nc1ccc(C(=O)N2CCN(C(=O)C3CCN(C(=O)C[N+](C)(C)C)CC3)CC2)c(Cl)c1 [Example B14, formate] , its IC90 with Acinetobacter baumannii ATCC17961 was recorded as 76

Considering COc1ccc(-c2cnc(C(=O)Nc3ccc(C(=O)N4CCN(C(=O)[C@@H]5C[C@@H](O)C[N+]5(C)C)CC4)c(Cl)c3)n2C)c(F)c1F [Example B25, formate] , its IC90 with Acinetobacter baumannii ATCC17961 was recorded as 120

Considering `Cn1c(-c2ccc(OCF)cc2F)cnc1C(=O)Nc1ccc(C(=O)N2CCN(C(=O)C[N+](C)(C)C)CC2)c(Cl)c1` , its IC90 with Acinetobacter baumannii ATCC17961 was recorded as 170

Considering `COc1ccc(-c2cnc(C(=O)Nc3ccc(C(=O)N4CCN(C(=O)[C@@H]5COCC[N+]5(C)C)CC4)c(Cl)c3)n2C)c(F)c1F` , its IC90 with Acinetobacter baumannii ATCC17961 was recorded as 130

Considering COc1ccc(-c2cnc(C(=O)Nc3ccc(C(=O)N[C@H]4C[C@@H](NCC[N+](C)(C)C)C4)c(Cl)c3)n2C)c(F)c1F [Example A11, formic acid; formate] , its IC90 with Acinetobacter baumannii ATCC17961 was recorded as 570

Considering COc1ccc(-c2cnc(C(=O)Nc3ccc(C(=O)N4CCN(C(=O)C5CC[N+](C)(CC(=O)O)CC5)CC4)c(Cl)c3)n2C)c(F)c1F (stereo not drawn) , its IC90 with Acinetobacter baumannii ATCC17961 was recorded as 640

Considering Cn1c(-c2ccc(OCC#N)c(F)c2F)cnc1C(=O)Nc1ccc(C(=O)NCCCNC(=O)C[N+](C)(C)C)c(Cl)c1 [Example A12, formate] , its IC90 with Acinetobacter baumannii ATCC17961 was recorded as 350

Considering `CCc1cc(NC(=O)c2ncc(-c3ccc(OC)c(F)c3F)n2C)ccc1C(=O)N1CCC(C(=O)NCCOCC[N+](C)(C)C)CC1` , its IC90 with Acinetobacter baumannii ATCC17961 was recorded as 410

Considering `COc1ccc(-c2cnc(C(=O)Nc3ccc(C(=O)NCc4cnc(NC(=O)C5CC[N+](C)(C)CC5)s4)c(Cl)c3)n2C)c(F)c1F` , its IC90 with Acinetobacter baumannii ATCC17961 was recorded as 170

Considering `Cn1c(-c2ccc(OCC#N)c(F)c2F)cnc1C(=O)Nc1ccc(C(=O)N2CCN(C(=O)CC[N+](C)(C)C)CC2)c(Cl)c1` , its IC90 with Acinetobacter baumannii ATCC17961 was recorded as 56

Considering `COc1ccc(-c2cnc(C(=O)Nc3ccc(C(=O)NCc4cn(CCCO)[n+](C)c4)c(Cl)c3)n2C)c(F)c1F` , its IC90 with Acinetobacter baumannii ATCC17961 was recorded as 330

Considering COc1ccc(-c2cnc(C(=O)Nc3ccc(C(=O)N4CCN(C(=O)C5CC[N+](C)(CC(N)=O)CC5)CC4)c(Cl)c3)n2C)c(F)c1F (stereo not drawn) [Example C5, formate] , its IC90 with Acinetobacter baumannii ATCC17961 was recorded as 73

Considering Cn1c(-c2ccc(OC(F)F)c(F)c2F)cnc1C(=O)Nc1ccc(C(=O)N2CCN(C(=O)C[N+](C)(C)C)CC2)c(Cl)c1 [Example B12, formate] , its IC90 with Acinetobacter baumannii ATCC17961 was recorded as 51

Considering `Cc1cc(NC(=O)c2ncc(-c3ccc(OCC#N)c(F)c3F)n2C)ccc1C(=O)N1CCN(C(=O)C[N+](C)(C)C)CC1` , its IC90 with Acinetobacter baumannii ATCC17961 was recorded as 310

Considering `COc1ccc(-c2cnc(C(=O)Nc3ccc(C(=O)NCc4cnn(CC5C[N+](C)(C)C5)c4)c(Cl)c3)n2C)c(F)c1F` , its IC90 with Acinetobacter baumannii ATCC17961 was recorded as 230

Considering Cn1c(-c2ccc(OC(F)F)c(F)c2F)cnc1C(=O)Nc1ccc(C(=O)N2CCN(C(=O)C3CC[N+](C)(CC4CCNC4)CC3)CC2)c(Cl)c1 (stereo not drawn) , its IC90 with Acinetobacter baumannii ATCC17961 was recorded as 49
